Test system: 885512-296-R-J2-PDC complex spheroid viability;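 note: spheroids exposed to the compounds for one week; percent of tumor spheroid viability relative to DMSO vehicle control wells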
measurement-protocol: Anticancer human tumor 885512-296-R-J2-PDC patient-derived breast carcinoma cell line growth inhibition [GQUAD]
conditions-used: second compound 3.16 µM; first compound 10 µM; active compounds read low
observed-property: viability, T/C (%)
Write the number in % without appending the unit.

Example entries and their recorded answers appear below.
compound	viability, T/C / %
O=c1[nH]cc(F)c(=O)[nH]1 + Cc1[nH]c2ccc(F)cc2c1-c1nc2c3cccnc3c3ncccc3c2[nH]1	9.54
O=C(c1cc(Cc2n[nH]c(=O)c3ccccc23)ccc1F)N1CCN(C(=O)C2CC2)CC1 + Cc1[nH]c2ccc(F)cc2c1-c1nc2c3cccnc3c3ncccc3c2[nH]1	2.65
COc1cc(C2c3cc4c(cc3C(OC3OC5COC(C)OC5C(O)C3O)C3COC(=O)C23)OCO4)cc(OC)c1O (stereo unspecified) + Cc1cnc(CNC(=O)c2c(=O)c3ccc(N4CCCN(C)CC4)nc3n3c2sc2ccccc23)cn1	17.7
C=CC(=O)N1CCN(c2nc(=O)n(-c3c(C)ccnc3C(C)C)c3nc(-c4c(O)cccc4F)c(F)cc23)C(C)C1 (stereo unspecified) + CN(C)c1ccc(Nc2c3ccc(NC(=O)CCN4CCCC4)cc3nc3cc(NC(=O)CCN4CCCC4)ccc23)cc1	77.7
Cc1cccc(N(C)C(=O)C2C(O)CCN2c2nc(C)cc(C(F)(F)F)c2C#N)c1 (stereo unspecified) + CN(C)c1ccc(Nc2c3ccc(NC(=O)CCN4CCCC4)cc3nc3cc(NC(=O)CCN4CCCC4)ccc23)cc1	62.2

Ask | Would you mind telling me what viability, T/C value was observed for COc1ccc([C@@H](O)c2cc(-c3ncnc4cc(N5CCOCC5)ccc34)c(F)cc2Cl)nn1 + Cc1cnc(CNC(=O)c2c(=O)c3ccc(N4CCCN(C)CC4)nc3n3c2sc2ccccc23)cn1 ?
Reply | 17.2

Ask | Now the same for Nc1ccn(C2OC(CO)C(O)C2(F)F)c(=O)n1 (stereo unspecified) + Cc1cnc(CNC(=O)c2c(=O)c3ccc(N4CCCN(C)CC4)nc3n3c2sc2ccccc23)cn1
Reply | 0.14

Ask | Now the same for CC(C)n1c(=O)n(C)c2cnc3cc(F)c(-c4ccc(OCCCN5CCCCC5)nc4)cc3c21 + CN(C)c1ccc(Nc2c3ccc(NC(=O)CCN4CCCC4)cc3nc3cc(NC(=O)CCN4CCCC4)ccc23)cc1
Reply | 18.8

Ask | Now the same for C=CCn1c(=O)c2cnc(Nc3ccc(N4CCN(C)CC4)cc3)nc2n1-c1cccc(C(C)(C)O)n1 + Cc1[nH]c2ccc(F)cc2c1-c1nc2c3cccnc3c3ncccc3c2[nH]1
Reply | 1.1

Ask | Now the same for CC1COCCN1c1cc(C2(O)CC3CCC(C2)O3)c2cnn(-c3ccn[nH]3)c2n1 (stereo unspecified) + CN(C)c1ccc(Nc2c3ccc(NC(=O)CCN4CCCC4)cc3nc3cc(NC(=O)CCN4CCCC4)ccc23)cc1
Reply | 6.31

Ask | Now the same for CCCS(=O)(=O)Nc1ccc(F)c(C(=O)c2c[nH]c3ncc(-c4ccc(Cl)cc4)cc23)c1F + Cc1cnc(CNC(=O)c2c(=O)c3ccc(N4CCCN(C)CC4)nc3n3c2sc2ccccc23)cn1
Reply | 0.29
